The measurements presented in this section are drawn from patent US20170253607A1.

Property: pIC50; scope: individual compounds
molecular target: HIV-1 PR (Human immunodeficiency virus type 1 group M subtype B, UniProt P04585); assay: HIV-protease inhibitory activity assay (FRET peptide substrate); conditions: Test Example 1
pIC50: −log10 of the molar value.
reported property: pIC50

1) COc1ccc(S(=O)(=O)N(CC2CCCC2)CC(O)C(Cc2ccc(OCc3ccccc3-n3nc(C(=O)O)c4c3CCC(C(F)(F)F)C4)cc2)NC(=O)OC2COC3(C)OCCC23)cc1 (stereo not shown) [Compound I-141] :: 8.76
2) COc1ccc(S(=O)(=O)N(CC(C)C)CC(O)C(Cc2ccc(N(C)CCc3ccccc3-c3sc4c(c3C(=O)O)CC(C)(C)CC4)cc2)NC(=O)OC2COC3(C)OCCC23)cc1 (stereo not shown) [Compound I-261] :: 8.45
3) COc1ccc(S(=O)(=O)N(CC(C)C)C[C@@H](O)[C@H](Cc2ccc(NCC(=O)Nc3sc4c(c3C(=O)O)CC(C)(C)CC4)cc2)NC(=O)OC2CO[C@@]3(C)OCC[C@@H]23)cc1 (stereo partly shown) [Compound I-593] :: 8.77
4) COc1ccc(S(=O)(=O)N(CC(C)C)CC(O)C(Cc2ccc(N3CCC(c4ccc(-c5sc6c(c5C(=O)O)CC(C)(C)CC6)cc4)C3)cc2)NC(=O)OC2COC3(C)OCCC23)cc1 (stereo not shown) [Compound I-577] :: 8.19
5) COc1ccc(S(=O)(=O)N(CC(C)C)CC(O)C(Cc2ccc(N(C)Cc3nc(N4CCN(C)CC4)sc3-c3sc4c(c3C(=O)O)CC(C)(C)CC4)cc2)NC(=O)OC2COC3(C)OCCC23)cc1 (stereo not shown) [Compound I-758] :: 8.79
6) COc1ccc(S(=O)(=O)N(CC(C)C)CC(O)C(Cc2ccc(OCc3ccccc3-c3sccc3C(=O)O)cc2)NC(=O)OC2COC3(C)OCCC23)cc1 (stereo not shown) [Compound I-97] :: 9.09
7) COc1ccc(S(=O)(=O)N(CC(C)C)C[C@@H](O)[C@H](Cc2ccccc2)NC(=O)O[C@H]2CO[C@@]3(CNC(=O)/C=C/c4sc5c(c4C(=O)O)CC(C)(C)CC5)OCC[C@@H]23)cc1 [Compound I-31] :: 9.14
